Attribute measured: melting point (°C)
One number for each entry, in °C.

Solved cases below.
[[record]]
molecule = "O=C(NC1CCN(CCc2c[nH]c3ccccc23)CC1)c1ccccc1"
attribute_measured = "melting point"
obs_value = 208

[[record]]
molecule = "Cc1ccc(CC=O)cc1"
attribute_measured = "melting point"
obs_value = 40

[[record]]
molecule = "CC(=O)OC1(c2ccccc2)Cc2ccccc21 (configuration not stated)"
attribute_measured = "melting point"
obs_value = 76

[[record]]
molecule = "Oc1cccc(I)c1"
attribute_measured = "melting point"
obs_value = 118

[[record]]
molecule = "OCC1(O)CC(O)C(O)CO1 (configuration not stated)"
attribute_measured = "melting point"
obs_value = 111

[[record]]
molecule = "CCC1(O)CC2CN(CCc3c([nH]c4ccccc34)C(C(=O)OC)(c3cc4c(cc3OC)N(C)C3C(O)(C(=O)OC)C(OC(C)=O)C5(CC)C=CCN6CCC43C65)C2)C1 (configuration not stated)"
attribute_measured = "melting point"
obs_value = 267


Record melting point for all entries; do not skip any.
1. NCC(O)CN
2. Cc1cc(C)c(O)c(C(C)(C)C)c1
3. N#Cc1nccc2ccccc12
4. CCCCCCCCCCCCCCCCCCCCC1CCCCC1

Result ::
[43, 22.3, 89, 48.5]

All figures here come from a melting point compilation (Tetko et al.).
